B1: CPEB3 Ribozyme (parent)
chain: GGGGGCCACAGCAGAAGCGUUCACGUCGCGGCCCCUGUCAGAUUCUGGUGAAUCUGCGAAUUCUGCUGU

- Variants of: B1
- procedure_details: self-cleavage, relative activity (ratio to wild type); higher = more cleavage; co-transcriptional
Listed here are variants together with their documented self-cleavage.
measured_endpoint: self-cleavage

| variant_name | assay_value |
| --- | --- |
| C24A G30A | 0.217 |
| G2C U67C | 0.106 |
| G30U U38C | 0.253 |
| U36C U61C | 0.524 |
| G11A U20G | 0.154 |
| A13G U64C | 1 |
| A51G U55C | 0.839 |
| G25C A51G | 0.203 |
| U21A C63G | 0.727 |
| G14U C33U | 0.79 |
| C18U U44A | 0.727 |
